Assay: Stability test in water
Assay type: physicochemical
Details: time before half of the drug is degraded, read-out: H2O, t1/2

| Molecule | half-life |
| --- | --- |
| C#CCOc1cc(COC(=O)NS(=O)(=O)c2ccc(C)cc2)cc2c1OC(OCC)O2 (stereo not drawn) [Compound 18] | > 48 h |
| C#CCOc1cc(COC(=O)N(C)C(=O)c2ccc(N3C(=S)N(c4ccc(C#N)c(C(F)(F)F)c4)C(=O)C3(C)C)cc2F)cc2c1OC(OCC)O2 (stereo not drawn) [Compound 16] | > 48 h |
| C#CCOc1cc(COC(=O)N(C[C@H]2CN(c3ccc(N4CCOCC4)c(F)c3)C(=O)O2)C(C)=O)cc2c1OC(OCC)O2 (stereo partly drawn) [Compound 15] | > 48 h |

* * *

Recorded measurements of half-life at 100 µM, one per entry
Experiment: Stability in plasma experiments (pooled human plasma, UV/LC-MS)
Assay type: in vitro ADME
Conditions: pooled human plasma, pH 7.4, 37 °C, time before half of the drug is degraded, read-out: Plasma, t1/2

| Compound | half-life at 100 µM |
| --- | --- |
| C#CCOc1cc(COC(=O)N(C[C@H]2CN(c3ccc(N4CCOCC4)c(F)c3)C(=O)O2)C(C)=O)cc2c1OC(OCC)O2 (stereo partly drawn) | > 24 h |
| C#CCOc1cc(COC(=O)NS(=O)(=O)c2ccc(C)cc2)cc2c1OC(OCC)O2 (stereo not drawn) | > 24 h |
| C#CCOc1cc(COC(=O)N(C)C(=O)c2ccc(N3C(=S)N(c4ccc(C#N)c(C(F)(F)F)c4)C(=O)C3(C)C)cc2F)cc2c1OC(OCC)O2 (stereo not drawn) | > 24 h |
